// data source = patent US20120107330A1

Target: T1, mouse serum albumin (MSA, Sigma-Aldrich) (mouse, UniProt P07724 25-608)
T1 construct: also called mouse albumin
Assay: BIAcore, MSA on CM5 chip
Classification field: enter Y for koff values not below 0.09 s⁻¹, N for values below it.

binder="DMS0188 (bispecific antibody, anti-TNFR1 dAb / AlbudAb in-line fusion) EVQLLESGGGLVQPGGSLRLSCAASGFTFVKYSMGWVRQAPGKGPEWVSQISNTGDRTYYADSVKGRFTISRDNSKNTLYLQMNSLRAEDTAVYYCAIYTGRWEPFDYWGQGTLVTVSSASTSGPSDIQMTQSPSSLSASVGDRVTITCRASRPIGTMLSWYQQKPGKAPKLLILFGSRLQSGVPSRFSGSGSGTDFTLTISSLQPEDFATYYCAQAGTHPTTFGQGTKVEIKRAAAEQKLISEEDLN" group=N
binder="DMS0163 (bispecific antibody, anti-TNFR1 dAb / AlbudAb in-line fusion) EVQLLESGGGLVQPGGSLRLSCAASGFTFVKYSMGWVRQAPGKGPEWVSQISNTGDRTYYADSVKGRFTISRDNSKNTLYLQMNSLRAEDTAVYYCAIYTGRWEPFDYWGQGTLVTVSSASTSGPSDIQMTQSPSSLSASVGDRVTITCRASRPIGTMLSWYQQKPGKAPKLLILAFSRLQSGVPSRFSGSGSGTDFTLTISSLQPEDFATYYCAQAGTHPTTFGQGTKVEIKRAAAEQKLISEEDLN" group=N
binder="DMS0189 (bispecific antibody, anti-TNFR1 dAb / AlbudAb in-line fusion) EVQLLESGGGLVQPGGSLRLSCAASGFTFVKYSMGWVRQAPGKGPEWVSQISNTGDRTYYADSVKGRFTISRDNSKNTLYLQMNSLRAEDTAVYYCAIYTGRWEPFDYWGQGTLVTVSSASTDIQMTQSPSSLSASVGDRVTITCRASRPIGTTLSWYQQKPGKAPKLLILWNSRLQSGVPSRFSGSGSGTDFTLTISSLQPEDFATYYCAQAGTHPTTFGQGTKVEIKRAAAEQKLISEEDLN" group=Y
binder="DMS0184 (bispecific antibody, anti-TNFR1 dAb / AlbudAb in-line fusion) EVQLLESGGGLVQPGGSLRLSCAASGFTFVKYSMGWVRQAPGKGPEWVSQISNTGDRTYYADSVKGRFTISRDNSKNTLYLQMNSLRAEDTAVYYCAIYTGRWEPFDYWGQGTLVTVSSASTSGPSDIQMTQSPSSLSASVGDRVTITCRASRPIGTTLSWYQQKPGKAPKLLIWFGSRLQSGVPSRFSGSGSGTDFTLTISSLQPEDFATYYCAQAGTHPTTFGQGTKVEIKR" group=Y
binder="DMS0190 (bispecific antibody, anti-TNFR1 dAb / AlbudAb in-line fusion) EVQLLESGGGLVQPGGSLRLSCAASGFTFVKYSMGWVRQAPGKGPEWVSQISNTGDRTYYADSVKGRFTISRDNSKNTLYLQMNSLRAEDTAVYYCAIYTGRWEPFDYWGQGTLVTVSSASTSGPSDIQMTQSPSSLSASVGDRVTITCRASRPIGTTLSWYQQKPGKAPKLLILWNSRLQSGVPSRFSGSGSGTDFTLTISSLQPEDFATYYCAQAGTHPTTFGQGTKVEIKRAAAEQKLISEEDLN" group=Y
